# target system: NAMPT (human, recombinant, C-terminally His-tagged) (Homo sapiens, UniProt P43490)
# Sequence (P43490 whole entry): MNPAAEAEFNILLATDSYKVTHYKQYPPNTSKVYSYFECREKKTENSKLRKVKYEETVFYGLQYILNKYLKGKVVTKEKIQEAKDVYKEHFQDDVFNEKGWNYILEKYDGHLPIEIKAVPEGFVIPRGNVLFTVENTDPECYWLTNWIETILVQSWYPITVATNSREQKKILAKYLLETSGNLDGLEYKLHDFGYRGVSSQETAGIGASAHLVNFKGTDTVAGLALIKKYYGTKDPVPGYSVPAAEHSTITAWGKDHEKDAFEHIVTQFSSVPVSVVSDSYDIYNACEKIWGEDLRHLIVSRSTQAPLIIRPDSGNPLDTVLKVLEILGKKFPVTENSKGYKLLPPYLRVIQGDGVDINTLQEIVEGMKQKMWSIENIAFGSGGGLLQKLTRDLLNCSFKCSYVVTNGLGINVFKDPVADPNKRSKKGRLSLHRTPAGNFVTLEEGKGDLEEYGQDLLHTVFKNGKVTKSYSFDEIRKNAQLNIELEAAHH
# experiment: Time-Resolved Fluorescence Resonance Energy Transfer (TR-FRET) Binding Assay of NAMPT
# conditions used: without substrates; 6.8 nM NAMPT, 200 nM probe, 3 hours equilibration
property: IC50 (nM)

Below are worked cases with known answers.
{"columns": ["compound", "property", "measured number"],
 "data": [
  ["CC(C)Cn1cc(-c2ccc(NC(=O)NCc3ccn4ccnc4c3)cc2)cn1", "IC50", 91.7],
  ["CC(C)(C)OC(=O)N1CC(c2ccc(NC(=O)NCc3ccn4ccnc4c3)cc2)C1", "IC50", 135],
  ["COc1cccc(C(=O)N2CCC(c3ccc(C(=O)NCc4ccn5ccnc5c4)cc3)CC2)c1", "IC50", 126],
  ["CC(C)(O)C(=O)N1CCC(c2ccc(C(=O)NCc3ccn4ccnc4c3)cc2)CC1", "IC50", 294]
]}

(P) O=C(NCc1ccn2ccnc2c1)Nc1ccc(OC2CCN(C(=O)[C@@H]3CCCO3)CC2)cc1
(Q) COc1ccc(C(CO)NC(=O)c2ccc(NC(=O)Nc3ccc4nccn4c3)cc2)cc1 (centres unmarked)
Task: Which numeric IC50 is bigger, that of P or that of Q ? Selection: enter the item's label.
Output: Q

(1) O=C(NCc1ccn2ccnc2c1)c1ccc(C2CCN(C(=O)c3cccnc3)CC2)cc1
(2) Cn1cc(C(=O)N2CCC(c3ccc(C(=O)NCc4ccn5ccnc5c4)s3)C2)cn1 (centres unmarked)
(3) O=C(NCc1ccn2ccnc2c1)c1ccc(OC2CCN(C(=O)[C@H]3CCCO3)CC2)cc1
Task: Sort (3 compounds) by IC50: min first. The labels, placed in the requested order, form the answer.
Output: 2, 1, 3
(2: 51.9 nM, 1: 461 nM, 3: 4750 nM)

(A) CC(C)S(=O)(=O)N1CCC(c2ccc(C(=O)NCc3ccn4ccnc4c3)cc2)CC1
(B) O=C(Nc1ccc(C(=O)NCCN2CCCC2)cc1)Nc1ccc2nccn2c1
(C) O=C(NCc1ccn2ccnc2c1)c1cc(Cl)c(-c2cnn(C[C@H]3CCOC3)c2)s1
(D) O=C(NCCCCC1CCN(C(=O)c2ccccc2)CC1)Nc1ccc2nccn2c1
Task: rank_up(items): orders items by reported IC50 in ascending numerical order. Respond with the label ranking, as requested.
Output: D, A, C, B
(D: 45.1 nM, A: 154 nM, C: 488 nM, B: 7600 nM)

---

# target system: NAMPT (human, recombinant, C-terminally His-tagged) (Homo sapiens)
# experiment: Time-Resolved Fluorescence Resonance Energy Transfer (TR-FRET) Binding Assay of NAMPT
# conditions used: without substrates; 6.8 nM NAMPT, 200 nM probe, 3 hours equilibration
property: IC50 (nM)

(1) CC(C)OCC(=O)N1CCC(Oc2ccc(C(=O)NCc3ccn4ccnc4c3)cc2)CC1
(2) O=C(NCc1ccn2ccnc2c1)c1ccc(C2CCN(C(=O)C3CCOCC3)C2)cc1 (stereo not shown)
(3) O=C(NCc1ccc2nccn2c1)c1ccc(OC2CCN(C(=O)CC3CCCO3)CC2)cc1 (stereo not shown)
(4) O=C(NCc1ccn2ccnc2c1)Nc1ccc(O[C@@H]2CCN(C(=O)CC3CC3)C2)cc1
Task: Reorder: IC50, max to min. Please list the labels according to the requested order.
Output: 1, 3, 2, 4

---

# target system: NAMPT (human, recombinant, C-terminally His-tagged) (Homo sapiens, UniProt P43490)
# experiment: Time-Resolved Fluorescence Resonance Energy Transfer (TR-FRET) Binding Assay of NAMPT
# conditions used: without substrates; 6.8 nM NAMPT, 200 nM probe, 3 hours equilibration
pIC50: −log10 of the molar value.
property: pIC50

// below: answered compounds
{"columns": ["compound", "target system", "measured number"],
 "data": [
  ["CC(C)Cn1cc(-c2ccc(C(=O)NCc3ccc4nccn4c3)cc2)cn1 [Example 119]", "NAMPT (human, recombinant, C-terminally His-tagged) (Homo sapiens, UniProt P43490)", 6.03],
  ["O=C(NCc1ccn2ccnc2c1)Nc1ccc(OC2CCN(C(=O)c3ccccc3)CC2)cc1 [Example 445]", "NAMPT (human, recombinant, C-terminally His-tagged) (Homo sapiens, UniProt P43490)", 6.96]
]}

(1) O=C(NCc1ccn2ccnc2c1)Nc1ccc(OC2CN(C(=O)[C@@H]3CCCO3)C2)cc1 [Example 432]
(2) O=C(NCc1ccn2ccnc2c1)c1ccc(C2CCN(C(=O)c3ccc(F)cc3F)C2)s1 (stereo not shown) [Example 772]
Task: # argmax over pIC50 for candidates 1 and 2 In your reply, give the label of the chosen option.
Output: 2

(A) COCCOCC(=O)N1CC=C(c2ccc(C(=O)NCc3ccc4nccn4c3)cc2)CC1 [Example 103]
(B) CC(C)OCC(=O)Nc1ccc(NC(=O)NCc2ccc3nccn3c2)cc1 [Example 276]
Task: Lowest pIC50? choose A or B Give the chosen item's label as your response.
Output: A

(I) O=C(NCc1ccn2ccnc2c1)c1ccc(C2CCN(C(=O)[C@H]3CCCO3)CC2)cc1 [Example 310]
(II) CC[C@H](C)C(=O)N1CCC(c2ccc(C(=O)NCc3ccn4ccnc4c3)cc2)CC1 [Example 238]
Task: Field: lower recorded pIC50 (choose I or II ) Write the label of whichever entry you select.
Output: I

(a) CC/C=C(\C)C(=O)N1CCC(c2ccc(C(=O)NCc3ccn4ccnc4c3)s2)C1 (stereo not shown) [Example 777]
(b) CC(C)OCCNC(=O)N(C[C@@H]1CCCO1)c1ncc(C(=O)NCc2ccc3nccn3c2)s1 [Example 156]
Task: // returns a or b , whichever has the lower pIC50 Please identify the chosen entry by its label.
Output: b

(a) O=C(NCc1ccn2ccnc2c1)c1ccc(C2CN(S(=O)(=O)C3CC3)C2)cc1 [Example 568]
(b) O=C(NCc1ccn2ccnc2c1)Nc1ccc(OC2CN(C(=O)c3ccccc3)C2)cc1 [Example 428]
Task: Just curious, which one has the larger pIC50 reading, a or b ? # reply format: chosen label
Output: b
(b: 7.06, a: 6.43)

(1) CC(C)CC(=O)N1CCC(c2ccc(C(=O)NCc3cn4ccnc4cn3)cc2)CC1 [Example 816]
(2) O=C(CC1CCCC1)Nc1ccc(NC(=O)NCc2ccn3ncnc3c2)cc1 [Example 564]
Task: // task: argmin of pIC50 over [ 1 , 2 ] Write down the label attached to your selection.
Output: 1
(1: 7.34, 2: 7.62)

(A) CCCC(=O)N1CCC(c2ccc(C(=O)NCc3ccn4ccnc4c3)cc2)CC1 [Example 505]
(B) O=C(NCc1ccn2ccnc2c1)c1ccc(C2CN(C(=O)c3cc(F)cc(F)c3)C2)cc1 [Example 648]
Task: API: POST /compare with A and B ; response names the item with higher pIC50. Write down the label attached to your selection.
Output: A

(I) O=C(NCc1ccn2ccnc2c1)c1ccc(C2CCN(C(=O)CC3CCCCC3)C2)cc1 (stereo not shown) [Example 607]
(II) O=C(NCc1ccn2ccnc2c1)c1ccc(C2CCN(C(=O)CC3CC3)CC2)cc1 [Example 312]
(III) Cn1cccc1C(=O)N1CCC(c2ccc(C(=O)NCc3ccn4ccnc4c3)s2)C1 (stereo not shown) [Example 771]
(IV) O=C(NCc1ccn2ccnc2c1)c1ccc(C2=CCN(S(=O)(=O)c3ccccc3)CC2)o1 [Example 801]
Task: Task field, ranking: reported pIC50, descending order. Rank them, then answer with their labels in that order.
Output: III, II, I, IV
(III: 7.15, II: 6.78, I: 6.32, IV: 6.06)

---

# target system: NAMPT (human, recombinant, C-terminally His-tagged) (Homo sapiens)
# experiment: Time-Resolved Fluorescence Resonance Energy Transfer (TR-FRET) Binding Assay of NAMPT
# conditions used: without substrates; 6.8 nM NAMPT, 200 nM probe, 3 hours equilibration
property: IC50 (nM)

Before answering, review these 5 worked examples.
{"columns": ["compound", "IC50 / nM"],
 "data": [
  ["CC1(Cn2cc(-c3ccc(C(=O)NCc4ccc5ncnn5c4)s3)cn2)CCOCC1", 29.4],
  ["CC(C)(CO)NC(=O)c1ccc(NC(=O)Nc2ccc3nccn3c2)cc1", 2910],
  ["CCC(C)CC(=O)N1CC(c2ccc(C(=O)NCc3ccn4ccnc4c3)cc2)C1 (centres unmarked)", 266],
  ["CC(C)(C)OC(=O)N1CCC(c2ccc(NC(=O)Nc3ccc4nccn4c3)cc2)CC1", 667],
  ["O=C(Nc1ccc(C(=O)NCCCN2CCOCC2)cc1)Nc1ccc2nccn2c1", 2730]
]}

(a) O=C(NCc1ccn2ccnc2c1)Nc1ccc(O[C@@H]2CCN(C(=O)C3CCOC3)C2)cc1 (some centres unmarked)
(b) Cc1ccsc1C(=O)N1CCC(c2ccc(C(=O)NCc3ccn4ccnc4c3)cc2)C1 (centres unmarked)
Task: In the pair a and b , the larger recorded IC50 belongs to which? Pick one and reply with its label.
Output: a

(A) O=C(NCc1ccn2ccnc2c1)c1cnc(C2CCN(C(=O)c3ccccc3F)C2)s1 (centres unmarked)
(B) CC(C)CCNc1ncc(C(=O)NCc2ccc3nccn3c2)s1
(C) O=C(NCc1ccn2ccnc2c1)c1ccc(C2CN(C(=O)c3ccncc3)C2)cc1
Task: Sort ascending by IC50. As an answer, provide the labels arranged in the order called for.
Output: C, A, B

(P) O=C(NCc1ccn2ccnc2c1)c1ccc(-c2cnn(CC3CCOCC3)c2)o1
(Q) O=C(NCCCCC1CCN(C(=O)C2CCCO2)CC1)Nc1ccc2nccn2c1 (centres unmarked)
(R) Cn1cc(CCC(=O)N(CC2CCCO2)c2ncc(C(=O)NCc3ccc4nccn4c3)s2)cn1 (centres unmarked)
Task: With regard to IC50, arrange the entries in ascending order, please. Put the labels in the requested order and write them down.
Output: R, P, Q
